- Test system: CCRIS mutagenicity, Ames/micronucleus/aberration tests
- Assay Remarks: CCRIS mutagenicity studies
- Measurement Conditions: Test System: AMES SALMONELLA TYPHIMURIUM; Strain/Indicator: TA1538; Metabolic Activation: RAT, LIVER, S-9, TETRACHLOROBIPHENYL; Method: PREINCUBATION
The source made the active and inactive calls. How the calls were made is not given here.
Choose one outcome from this list and give only that: True = active, False = inactive

A selection of reference data follows.
### Prompt What is the recorded call for this molecule in the test? `Nc1ccc2cc3ccccc3nc2c1`
### Response True

### Prompt Same question, `C[n+]1c2ccccc2cc2c(N)cccc21` this time
### Response False

### Prompt Same question, `Nc1ccc2nc3ccccc3c(N)c2c1` this time
### Response True

Kindly review the next molecule as well.
### Prompt What is the recorded call for this molecule in the test? `Nc1cccc2nc3ccccc3cc12`
### Response True

====

- Tested on: CCRIS mutagenicity, Ames/micronucleus/aberration tests
- Assay Remarks: CCRIS mutagenicity studies
- Measurement Conditions: Test System: AMES SALMONELLA TYPHIMURIUM; Strain/Indicator: TA98; Metabolic Activation: RAT, LIVER, S-9; Method: STANDARD PLATE
Activity calls are given as the source filed them. No rule for the calls is given here.
Measure Name: mutagenic call

### Prompt Field request: mutagenic call | item: `CC(=O)NO`
### Response active; positive

### Prompt Same question, `CC(C)OS(C)(=O)=O` this time
### Response inactive; negative

### Prompt Same question, CCOCC(O)COc1ccc(NC(=O)CC[S+](C)C)cc1 (configuration not stated) this time
### Response inactive; negative

### Prompt Same question, `CC/C(=C(/CC)c1ccc(O)cc1)c1ccc(O)cc1` this time
### Response inactive; negative

# map each compound to its mutagenic call
1. CCOC(=O)CC(SP(=O)(OC)OC)C(=O)OCC (configuration not stated)
2. CNC(=O)ON(C(C)=O)C(=O)NC

### Response
active; positive
active; positive

# map each compound to its mutagenic call
1. COC(=O)C1=CCCN(C)C1
2. Cc1ccc(N=Nc2c(O)c(C(=O)O)cc3ccccc23)cc1S(=O)(=O)O
3. NC(=O)c1cc[n+](COC[n+]2ccccc2/C=N/O)cc1
4. O=[N+]([O-])c1c2c(cc3ccccc13)C=C[C@@H](O)[C@@H]2O

### Response
["inactive; negative", "inactive; negative", "inactive; negative", "inactive; negative"]

# map each compound to its mutagenic call
1. Cc1cc(C)c(N)c(C)c1N
2. OC[C@@H](O)[C@@H](O)CO

### Response
["active; positive", "inactive; negative"]

====

- Test system: CCRIS mutagenicity, Ames/micronucleus/aberration tests
- Assay Remarks: CCRIS mutagenicity studies
- Measurement Conditions: Test System: CHINESE HAMSTER V-79; Strain/Indicator: V-79/8-AZAGUANINE; Metabolic Activation: NONE; Method: STANDARD PLATE
Calls of active or inactive are those of the source. No rule for the calls is given here.
Measure Name: mutagenic call

### Prompt Field request: mutagenic call | item: `c1cc2ccc3cc4c(c5ccc(c1)c2c35)[C@H]1O[C@H]1CC4`
### Response active; positive

### Prompt Same question, c1ccc(C2CO2)cc1 (stereo not drawn) this time
### Response active; positive

### Prompt Same question, `O[C@H]1[C@@H]2O[C@@H]2c2c(ccc3cc4ccc5ccccc5c4nc23)[C@@H]1O` this time
### Response active; positive
